- Test system: K562 cells
- procedure_summary: K562 cell proliferation assay (CellTiter-Glo)
- Assay type: cell-based
- condition_summary: Homo sapiens, K562 cell viability, 72 hours, read-out: Cell Line (IC50, nM) K562
measurement_label: IC50 (nM)

Here's what some known entries look like.
COc1nc(C)c(F)c(OC)c1-c1cc2cc(NC(=O)[C@@H]3C[C@@H]3F)ncc2n1C : 456
CCOc1ccccc1-c1cc2cc(NC(=O)C3CC3)ncc2n1C : 127
COc1cccc(OC)c1-c1cc2cc(NC(=O)[C@@H]3C[C@H]3CN(C)C)ncc2n1C : 53.1
COc1ncc(F)c(OC)c1-c1cc2cc(NC(=O)[C@@H]3C[C@H]3CN(C)C)ncc2n1C (single isomer, unassigned) : 108
CCc1ncccc1-c1cc2cc(NC(=O)[C@@H]3C[C@@H]3F)ncc2n1C : 1780

(A) Cn1c(-c2cccc3[nH]cnc23)cc2cc(NC(=O)[C@@H]3C[C@@H]3F)ncc21
(B) COc1nccc(C)c1-c1cc2cc(NC(=O)[C@@H]3C[C@@H]3F)ncc2n1C
Q: Consider entries A and B . Which has the numerically lower IC50? Answer = label.
Result: B

----------
- Tested on: HL60 cells
- procedure_summary: HL60 cell proliferation assay (CellTiter-Glo)
- Assay type: cell-based
- condition_summary: Homo sapiens, HL-60, HL60 cell viability, 72 hours, read-out: Cell Line (IC50, nM) HL60
measurement_label: IC50 (nM)

Observe how each entry below is paired with its result.
COc1ccc(F)cc1-c1cc2cc(NC(=O)[C@@H]3C[C@@H]3F)ncc2n1C : 2930
CNc1nc(OC)c(-c2cc3cc(NC(=O)[C@@H]4C[C@@H]4F)ncc3n2C)c(OC)n1 : 199

(A) COc1cccc(OC)c1-c1cc2cc(NC(=O)[C@@H]3C[C@@H]3F)ncc2n1C
(B) COc1ccnc(OC)c1-c1cc2cc(NC(=O)[C@H]3C[C@H]3F)ncc2n1C
Q: Record comparison, field IC50: mark the lower of A and B . Please respond with the label that marks your chosen entry.
Result: A

----------
- Tested on: HL60 cells
- procedure_summary: HL60 cell proliferation assay (CellTiter-Glo)
- Type: cell-based
- condition_summary: Homo sapiens, HL-60, HL60 cell viability, 72 hours, read-out: Cell Line (IC50, nM) HL60
measurement_label: IC50 (nM)

COc1ncccc1-c1cc2cc(NC(=O)[C@@H]3C[C@@H]3F)ncc2n1C : 4150
COc1ncnc(OC)c1-c1cc2cc(NC(=O)C3CC3)ncc2n1C : 929
COc1cc2scnc2cc1-c1cc2cc(NC(=O)[C@@H]3C[C@@H]3F)ncc2n1C : 1030
Cn1c(-c2cccnc2OC2CC2)cc2cc(NC(=O)[C@@H]3C[C@@H]3F)ncc21 : 1550
[2H]C([2H])([2H])n1c(-c2cccnc2OC)cc2cc(NC(=O)[C@@H]3C[C@@H]3F)ncc21 : 1610

(a) COc1ncnc(OC)c1-c1cc2cc(NC(=O)[C@@H]3CC3(F)F)ncc2n1C
(b) COc1cc(C)nc(OC)c1-c1cc2cc(NC(=O)[C@@H]3C[C@@H]3F)ncc2n1C
(c) [2H]C([2H])([2H])Oc1ncc(F)cc1-c1cc2cc(NC(=O)[C@@H]3C[C@@H]3F)ncc2n1C([2H])([2H])[2H]
(d) [2H]C([2H])([2H])Oc1ncnc(OC([2H])([2H])[2H])c1-c1cc2cc(NC(=O)[C@@H]3C[C@@H]3F)ncc2n1C
Q: Write the entries in order, lowest recorded IC50 first. # output: labels, in the requested order
Result: b, a, d, c
(b: 605 nM, a: 1200 nM, d: 3550 nM, c: 5150 nM)
